Overview of recorded pEC50 for various compounds
Biological target: human ΔF508-CFTR (Homo sapiens, UniProt P13569, DEL508-508)
Sequence (P13569 with tags, fused parts or gaps DEL508-508): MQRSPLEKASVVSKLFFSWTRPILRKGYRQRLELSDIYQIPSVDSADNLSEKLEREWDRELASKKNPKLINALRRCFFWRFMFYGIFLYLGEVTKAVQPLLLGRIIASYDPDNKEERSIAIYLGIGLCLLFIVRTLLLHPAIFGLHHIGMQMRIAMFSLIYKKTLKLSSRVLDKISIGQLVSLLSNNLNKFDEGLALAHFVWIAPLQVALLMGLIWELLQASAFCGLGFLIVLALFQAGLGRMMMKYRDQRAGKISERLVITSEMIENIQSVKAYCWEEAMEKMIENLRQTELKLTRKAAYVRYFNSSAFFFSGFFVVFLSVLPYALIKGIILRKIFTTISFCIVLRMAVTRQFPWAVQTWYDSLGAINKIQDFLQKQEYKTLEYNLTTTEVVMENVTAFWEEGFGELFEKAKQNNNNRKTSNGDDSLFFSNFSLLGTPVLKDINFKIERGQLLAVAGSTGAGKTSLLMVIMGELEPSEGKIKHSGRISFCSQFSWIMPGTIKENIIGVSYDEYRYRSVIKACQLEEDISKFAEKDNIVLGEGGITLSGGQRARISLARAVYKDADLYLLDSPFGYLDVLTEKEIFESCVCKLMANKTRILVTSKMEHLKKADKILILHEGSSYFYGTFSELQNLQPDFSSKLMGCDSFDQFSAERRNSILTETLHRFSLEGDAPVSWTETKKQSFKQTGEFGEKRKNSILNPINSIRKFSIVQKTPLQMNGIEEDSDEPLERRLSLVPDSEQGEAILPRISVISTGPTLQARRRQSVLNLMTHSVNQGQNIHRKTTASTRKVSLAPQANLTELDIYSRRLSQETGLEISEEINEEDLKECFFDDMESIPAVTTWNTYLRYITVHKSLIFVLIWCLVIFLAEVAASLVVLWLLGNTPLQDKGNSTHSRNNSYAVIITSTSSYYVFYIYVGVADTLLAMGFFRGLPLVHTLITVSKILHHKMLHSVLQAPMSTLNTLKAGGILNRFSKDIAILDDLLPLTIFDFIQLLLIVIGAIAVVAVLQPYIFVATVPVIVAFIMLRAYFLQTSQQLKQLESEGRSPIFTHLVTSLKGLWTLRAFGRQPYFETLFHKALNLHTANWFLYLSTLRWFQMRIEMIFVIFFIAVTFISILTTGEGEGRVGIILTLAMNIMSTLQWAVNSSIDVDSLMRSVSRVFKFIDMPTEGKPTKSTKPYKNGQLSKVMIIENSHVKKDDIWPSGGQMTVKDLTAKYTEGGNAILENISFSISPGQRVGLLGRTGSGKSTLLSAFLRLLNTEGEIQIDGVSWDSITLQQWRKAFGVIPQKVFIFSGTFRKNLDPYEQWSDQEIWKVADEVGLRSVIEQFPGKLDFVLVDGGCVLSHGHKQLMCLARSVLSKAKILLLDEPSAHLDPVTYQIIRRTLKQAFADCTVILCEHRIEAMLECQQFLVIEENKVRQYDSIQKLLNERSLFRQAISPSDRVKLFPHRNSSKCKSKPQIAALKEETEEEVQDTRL
Assay: CFTR-YFP High Throughput Assay (HTS YFP flux assay, corrector / potentiator protocols)
Settings: FRT cells stably expressing human ΔF508-CFTR and YFP-H148Q/I152L
pEC50: −log10 of the molar value.

O=C(CNc1nnc2ccc(S(=O)(=O)c3ccccc3)cn12)C1CCCCC1; 5.00 to 6.00
CCN(CC)S(=O)(=O)c1ccc2nnc(N[C@@H](C)c3ccccc3)n2c1; > 6.00
CCN(CC)S(=O)(=O)c1ccc2nnc(NCc3ccc4c(c3)CCO4)n2c1; > 6.00
CCN(CC)S(=O)(=O)c1ccc2nnc(N[C@@H](c3ccccc3)C(C)C)n2c1; > 6.00
CCN(CC)S(=O)(=O)c1ccc2nnc(NCc3ccccc3)n2c1C; 5.00 to 6.00
CCN(CC)S(=O)(=O)c1ccc2nnc(NCc3ccccc3)n2c1; > 6.00

The recorded pEC50 with human ΔF508-CFTR (Homo sapiens, UniProt P13569, DEL508-508) for c1ccc(-c2ccc3nc(Nc4ccc(-c5ccccn5)cc4)nn3c2)cc1 was 5.00 to 6.00

The recorded pEC50 with human ΔF508-CFTR (Homo sapiens, UniProt P13569, DEL508-508) for Cc1ccc(CNc2nc3ccc(S(=O)(=O)N4CCCCC4)cn3n2)cc1 was > 6.00

The recorded pEC50 with human ΔF508-CFTR (Homo sapiens, UniProt P13569, DEL508-508) for CCN(CC)S(=O)(=O)c1ccc2nnc(N[C@@H]3C[C@H]4CC[C@@H]3C4)n2c1 was > 6.00

The recorded pEC50 with human ΔF508-CFTR (Homo sapiens, UniProt P13569, DEL508-508) for CCN(CC)S(=O)(=O)c1ccc2nnc(NCc3ccc(F)cc3)n2c1 was > 6.00

The recorded pEC50 with human ΔF508-CFTR (Homo sapiens, UniProt P13569, DEL508-508) for CCN(CC)S(=O)(=O)c1ccc2nnc(NCC(C)(C)O)n2c1 was 5.00 to 6.00

----------
Biological target: human ΔF508-CFTR (Homo sapiens, UniProt P13569, DEL508-508)
Construct: expressed in transfected cells
Assay: CFTR-YFP High Throughput Assay (HTS YFP flux assay, corrector / potentiator protocols)
Format: cell-based
Conditions: FRT cells stably expressing human ΔF508-CFTR and YFP-H148Q/I152L; normalized to positive control; read-out: Emax (% Efficacy, EMax normalized to the positive control)
ASSAY METRIC: Emax

Looking up CCN(CC)S(=O)(=O)c1ccc2nnc(N3CCN(Cc4ccccc4)CC3)n2c1 , I see its Emax listed as 40 to 80%

Looking up CCN(CC)S(=O)(=O)c1ccc2nnc(NCc3ccc(OC(F)(F)F)cc3)n2c1 , I see its Emax listed as 10 to 40%

Looking up CN1CCC(c2ccc(CNc3nc4ccc(S(=O)(=O)c5ccccc5)cn4n3)cc2)CC1 , I see its Emax listed as > 80%

----------
Overview of recorded Emax for various compounds
Molecular target: human ΔF508-CFTR (Homo sapiens, UniProt P13569, DEL508-508)
Construct: expressed in transfected cells
Assay: CFTR-YFP High Throughput Assay (HTS YFP flux assay, corrector / potentiator protocols)
Assay type: cell-based
Conditions: FRT cells stably expressing human ΔF508-CFTR and YFP-H148Q/I152L; normalized to positive control; read-out: Emax (% Efficacy, EMax normalized to the positive control)

CCN(CC)S(=O)(=O)c1ccc2nnc(NCC3CC3)n2c1 [Example 8]; > 80%
O=S(=O)(c1ccccc1)c1ccc2nnc(NCC(O)COc3ccccc3)n2c1 (stereo not shown) [Example 67]; > 80%
CCN(CC)S(=O)(=O)c1ccc2nnc(NCc3cccc(C)c3)n2c1 [Example 10]; > 80%

The recorded Emax with human ΔF508-CFTR (Homo sapiens, UniProt P13569, DEL508-508) for CCN(CC)S(=O)(=O)c1ccc2nnc(NCC(=O)Nc3ccc(C)c(C)c3)n2c1 [Example 22] was 40 to 80%

The recorded Emax with human ΔF508-CFTR (Homo sapiens, UniProt P13569, DEL508-508) for CCN(CC)S(=O)(=O)c1ccc2nnc(NCC3CCCO3)n2c1 (stereo not shown) [Example 14] was 40 to 80%

The recorded Emax with human ΔF508-CFTR (Homo sapiens, UniProt P13569, DEL508-508) for CCN(CC)S(=O)(=O)c1ccc2nnc(NCc3ccc(OC)cc3)n2c1 [Example 16] was 40 to 80%

The recorded Emax with human ΔF508-CFTR (Homo sapiens, UniProt P13569, DEL508-508) for O=S(=O)(c1ccccc1)c1ccc2nc(NC[C@H](O)c3ccccc3)nn2c1 [Example 83] was > 80%

----------
Biological target: human ΔF508-CFTR (Homo sapiens, UniProt P13569, DEL508-508)
Construct: expressed in transfected cells
Assay: CFTR-YFP High Throughput Assay (HTS YFP flux assay, corrector / potentiator protocols)
Format: cell-based
Conditions: FRT cells stably expressing human ΔF508-CFTR and YFP-H148Q/I152L
pEC50: −log10 of the molar value.
ASSAY METRIC: pEC50

The recorded pEC50 with human ΔF508-CFTR (Homo sapiens, UniProt P13569, DEL508-508) for CCN(CC)S(=O)(=O)c1ccc2nnc(NCc3ccc(-c4ccccc4)cc3)n2c1 was > 6.00

The recorded pEC50 with human ΔF508-CFTR (Homo sapiens, UniProt P13569, DEL508-508) for CCN(CC)S(=O)(=O)c1ccc2nnc(NCC3CCOCC3)n2c1 was > 6.00

The recorded pEC50 with human ΔF508-CFTR (Homo sapiens, UniProt P13569, DEL508-508) for CCN(CC)S(=O)(=O)c1ccc2nnc(N[C@@H](Cc3ccccc3)C(=O)N3CCCCC3)n2c1 was > 6.00

The recorded pEC50 with human ΔF508-CFTR (Homo sapiens, UniProt P13569, DEL508-508) for CC(C)(C)C(=O)OC(CNc1nnc2ccc(S(=O)(=O)c3ccccc3)cn12)C1CCCCC1 (stereo not shown) was > 6.00

----------
Target: human ΔF508-CFTR (Homo sapiens, UniProt P13569, DEL508-508)
Experiment: CFTR-YFP High Throughput Assay (HTS YFP flux assay, corrector / potentiator protocols)
Settings: FRT cells stably expressing human ΔF508-CFTR and YFP-H148Q/I152L
Method: Assays for Detecting and Measuring the Effect of Compounds on dF508-CFTR Channels CFRT-YFP High Throughput Assay: Corrector Assay: The following protocol is designed to selectively screen small molecule compounds for F508del CFTR corrector activities in the HTS YFP flux assay. In this protocol, the cells are incubated with testing compounds for 24 hours, washed with PBS, stimulated with forskolin and a standard potentiator, and read on a 384-well HTS plate reader, such as the Hamamatsu FDDD-6000. […]
pEC50: −log10 of the molar value.
Overview of recorded pEC50 for various molecules

Looking up O=S(=O)(c1ccccc1)c1ccc2nnc(NCc3ccc(-c4ccccn4)cc3)n2c1 , I see its pEC50 listed as > 6.00

Looking up O=S(=O)(c1ccccc1)c1ccc2nnc(NCC(O)C3CCCC3)n2c1 (stereo not drawn) , I see its pEC50 listed as > 6.00

Looking up O=S(=O)(c1ccc2nc(NCc3ccc4c(c3)OCO4)nn2c1)N1CCCCC1 , I see its pEC50 listed as 5.00 to 6.00

Data provenance: patent US9926315B2
